- SYSTEM TESTED: UniProt:P17931
- Sequence (P17931 whole entry): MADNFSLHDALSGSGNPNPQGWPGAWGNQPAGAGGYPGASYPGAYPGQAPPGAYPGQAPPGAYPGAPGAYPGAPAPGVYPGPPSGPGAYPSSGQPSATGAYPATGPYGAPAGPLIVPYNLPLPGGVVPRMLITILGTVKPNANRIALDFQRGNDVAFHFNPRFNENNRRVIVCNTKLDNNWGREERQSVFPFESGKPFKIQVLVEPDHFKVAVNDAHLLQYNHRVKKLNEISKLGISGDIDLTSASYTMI
- EXPERIMENT DESCRIPTION: Binding affinity to human Gal-3 expressed in Escherichia coli BL21 (DE3) cells by competitive fluorescence polarization assay
MEASUREMENT NAME: Kd (µM)

Worked cases, Kd given:
O=C(NS(=O)(=O)c1cc(Cl)c(Cl)s1)c1cc2cc(Oc3ccc(Cl)c(Cl)c3)ccc2o1 = 30.5
COc1cccc(S(=O)(=O)NC(=O)c2cc3cc(Oc4ccc(Cl)c(Cl)c4)ccc3[nH]2)c1 = 39.2
CCOC(=O)c1ccc(S(=O)(=O)N(C)C(=O)c2cc3cc(Oc4ccc(Cl)c(Cl)c4)ccc3n2C)cc1 = 363
O=C(NS(=O)(=O)c1cc(F)c(F)c(F)c1)c1cc2cc(Oc3ccc(Cl)c(Cl)c3)ccc2[nH]1 = 33
O=C(NS(=O)(=O)c1ccc([N+](=O)[O-])cc1)c1cc2cc(Oc3ccc(Cl)c(Cl)c3)ccc2[nH]1 = 30

(P) O=C(NS(=O)(=O)c1ccn(Cl)n1)c1cc2cc(Oc3ccc(Cl)c(Cl)c3)ccc2[nH]1
(Q) O=C(NS(=O)(=O)c1ccc(Cl)cc1Cl)c1cc2cc(Oc3ccc(F)cc3)ccc2[nH]1
(R) O=C(NS(=O)(=O)c1cc(Cl)c(Cl)s1)c1cc2cc(Oc3ccc(Cl)cc3Cl)ccc2[nH]1
Please rank these compounds by Kd in descending order. Answer by listing the labels in the order asked for.
Q, P, R

Values were extracted from ChEMBL document CHEMBL5390211.
